- Test description: Blood-brain barrier permeability after intravenous administration
- Experimental parameters: mouse, brain, iv
Note to self: values exactly at 9 %ID/g are Satisfied. So tissue uptake at 2 min at or above 9 %ID/g is Satisfied, below is Not satisfied.

| Chemical smiles | Assigned class |
| --- | --- |
| CN(C)c1ncc(/C=C/c2nc3ccccc3o2)s1 | Satisfied |
| CN(C)c1ncc(/C=C/c2nc3ccccc3s2)s1 | Satisfied |
| CN(C)c1ncc(/C=C/c2nc3ccc(OCCF)cc3o2)s1 | Not satisfied |
| CN(C)c1ncc(/C=C/c2ccc3ccccc3n2)s1 | Satisfied |

====

Listed below: Plasma values for each entry.
- Test description: Blood-brain barrier permeability after intravenous administration
- Experimental parameters: mice, content in plasma two minutes after intravenous administration
Experimental endpoint: Plasma

| Chemical smiles | Experimental endpoint | Result |
| --- | --- | --- |
| CN(C)c1ncc(/C=C/c2ccc3ccccc3n2)s1 | Plasma | 2.0 %ID/g or ml |
| CN(C)c1ncc(/C=C/c2nc3ccccc3s2)s1 | Plasma | 1.8 %ID/g or ml |
| CNc1ccc(/C=C/C=C/c2nc3ccccc3o2)cc1 | Plasma | 1.0 %ID/g or ml |
| CNc1ccc(/C=C/C=C/c2nc3ccccc3[nH]2)cc1 | Plasma | 1.7 %ID/g or ml |
| Cc1nc(/C=C/c2cnc(N(C)C)s2)oc1C | Plasma | 2.1 %ID/g or ml |
| CN(C)c1ncc(/C=C/c2nc3ccccc3o2)s1 | Plasma | 1.9 %ID/g or ml |
| CNc1ccc(/C=C/C=C/c2nc3ccccc3s2)cc1 | Plasma | 1.3 %ID/g or ml |
| CN(C)c1ncc(/C=C/c2nc3ccc(OCCF)cc3o2)s1 | Plasma | 2.1 %ID/g or ml |
